biological target: S. aureus Hfq (Staphylococcus aureus, UniProt A0A0H3JV59 1-77); experiment: fluorescence anisotropy
ATTRIBUTE MEASURED: pKd
// scale note: pKd = -log10(conc_M); give the bare number

Dear colleague, I am looking for the recorded pKd of the following binder: GUGGUCAGUCGAGUGGCUUCCGUCCAUUUCGGACGUUUUUU (structured_RNA) [Cy3-mini-sRNA]
7.00

Just for reference, paper PMC4884477 is where these values come from.
